Target: HIV-1 integrase (wild-type IN) (Human immunodeficiency virus type 1 group M subtype B)
Experiment: biochemical
Conditions: IC50 ST (strand transfer), wild-type IN 200 nM, 7.5 mM MnCl2
Value Type: IC50

>>> result("O=C(/C=C/c1c(Cl)ccc(Cl)c1Cl)c1cc(Br)cc([N+](=O)[O-])c1O")
"21 µM"
>>> result("O=C(/C=C/c1cc(Cl)cc(Cl)c1Cl)c1cc(Br)cc([N+](=O)[O-])c1O")
"68 µM"
>>> result("O=C(NCc1ccc(F)cc1)c1cc(Br)ccc1O")
"> 100 µM"

Switching to the query record.
Recall and state the measured IC50 for `Cc1cccc(C(=O)NCc2ccc(F)cc2)c1O` .
> 100 µM
